Ki for UniProtKB P29274, merged from several publications.
ASSAY METRIC: Ki (nM)

INSERT INTO results (compound, unit_of_measurement, qualifier_operator, readout_value) VALUES
  ('Cc1cc(-c2c(-c3cccc(C#N)c3)nn3ccc(N(C)C)nc23)cc(Cl)n1', 'nM', '=', 10.2),
  ('Cc1cc(-c2c(-c3cccc(C#N)c3)nn3ccc(O[C@@H]4CCCNC4)nc23)cc(Cl)n1', 'nM', '=', 3.3),
  ('Cc1cc(-c2c(-c3cccc(C#N)c3)nn3ccc(C(=O)NC4(C(N)=O)CCNCC4)nc23)cc(Cl)n1 (single isomer, unassigned)', 'nM', '=', 16.4),
  ('Cc1cc(-c2sc(NC(=O)N3CCC4(CC3)CN(C)C(=O)N4C)nc2-c2cccc(C#N)c2)cc(C)n1', 'nM', '=', 1.01),
  ('CCn1nccc1-c1c(-c2cccc(C#N)c2)nn2ccc(N3CCS(=N)(=O)CC3)nc12', 'nM', '=', 440),
  ('Cc1cc(-c2c(-c3cccc(C#N)c3)nn3ccc(N[C@H]4CCOC4)nc23)cc(Cl)n1', 'nM', '=', 7.5),
  ('Cc1cc(-c2c(-c3cccc(C#N)c3)nn3ccc(C(=O)NCC4(C)NC(=O)NC4=O)nc23)cc(C)n1 (stereo not shown)', 'nM', '=', 1.1),
  ('Cc1cc(-c2c(-c3cccc(C#N)c3)nn3ccc(C(=O)NCC4(C)CCC(=O)N4)nc23)cc(C)n1 (stereo not shown)', 'nM', '=', 0.7),
  ('Cc1cc(-c2c(-c3cccc(C#N)c3)nn3ccc(C(=O)NCC(C)(O)CO)nc23)cc(C)n1 (stereo not shown)', 'nM', '=', 0.5),
  ('Cc1cc(-c2c(-c3cccc(C#N)c3)nn3ccc(C(=O)NCC4CCC(=O)NC4)nc23)cc(C)n1 (stereo not shown)', 'nM', '=', 19.2),
  ('Nc1ccc(-c2ccncc2F)c(-c2ccncc2)n1', 'nM', '>', 5000),
  ('c1ccc(CNc2ncn3nc(-c4ccco4)cc3n2)cc1', 'nM', '=', 160),
  ('Cc1cc(-c2sc(NC(=O)N3CCN[C@H](C)C3)nc2-c2cccc(C#N)c2)cc(C(F)(F)F)n1', 'nM', '=', 2.71),
  ('CCCC(O)c1nc(N)c2nc(-n3nccn3)n(C)c2n1 (stereo not shown)', 'nM', '=', 22),
  ('Nc1nc(-c2cccnc2)c(-c2ccncc2)cc1Br', 'nM', '=', 300),
  ('Cc1cc(-c2sc(NC(=O)N3CCN[C@H](C(N)=O)C3)nc2-c2cccc(C#N)c2)cc(Cl)n1', 'nM', '=', 0.68),
  ('Cc1cc(-c2c(-c3cccc(C#N)c3)nn3ccc(C(C)(C)O)nc23)cc(Cl)n1', 'nM', '=', 9.9),
  ('N#Cc1c(-c2ccccc2F)nn2ccc(NCc3ccccc3)nc12', 'nM', '=', 4.5),
  ('Cc1cc(-c2c(-c3cccc(C#N)c3)nn3ccc(NC45CC(C(=O)O)(C4)C5)nc23)cc(Cl)n1', 'nM', '=', 45.3),
  ('Cc1cc(-c2sc(NC(=O)N3CC(N4CCOCC4)C3)nc2-c2cccc(C#N)c2)cc(C)n1', 'nM', '=', 4.3),
  ('Cc1cc(-c2c(-c3cccc(C#N)c3)nn3ccc(C(=O)N[C@H]4CNC[C@H]4O)nc23)cc(Cl)n1', 'nM', '=', 2.6),
  ('Cc1cc(-c2c(-c3cccc(C#N)c3)nn3ccc(C(=O)N(C)CC(C)(C)O)nc23)cc(Cl)n1', 'nM', '=', 4.2),
  ('Cc1cc(-c2c(-c3cccc(C#N)c3C)nn3ccc(C(=O)N[C@H](C)C(C)(C)O)nc23)cc(C)n1', 'nM', '=', 0.9),
  ('Cc1cc(-c2c(-c3ccc(F)cc3)nn3ccc(N)nc23)cc(Cl)n1', 'nM', '=', 35.7),
  ('Cc1cc(-c2sc(NC(=O)N3CCN(S(C)(=O)=O)CC3)nc2-c2cccc(C#N)c2)cc(C)n1', 'nM', '=', 0.6),
  ('Cc1cc(-c2c(-c3cccc(C#N)c3)nn3ccc(NC(=O)CC(C)(C)O)nc23)cc(Cl)n1', 'nM', '=', 1.2),
  ('Cc1cc(-c2sc(NC(=O)N3CCNC(=O)C3)nc2-c2cccc(C#N)c2)cc(C)n1', 'nM', '=', 1.5),
  ('Cc1cc(-c2sc(NC(=O)N3CCN[C@H](C#N)C3)nc2-c2cccc(C#N)c2)cc(C)n1', 'nM', '=', 0.18),
  ('COC1(C#N)CCN(C(=O)Nc2nc(-c3cccc(C#N)c3)c(-c3cc(C)nc(CO)c3)s2)CC1', 'nM', '=', 0.31),
  ('C[C@@H]1CN(c2ccn3nc(-c4ccco4)c(C#N)c3n2)CCN1C(=O)OC(C)(C)C', 'nM', '=', 76),
  ('Cc1cc(-c2c(-c3cccc(C#N)c3)nn3ccc(C(=O)NC[C@@H](O)CO)nc23)cc(Cl)n1', 'nM', '=', 0.7);

====

pKi: −log10 of the molar value.
pKi for UniProt P29274, merged from several publications.
ASSAY METRIC: pKi

INSERT INTO measurements (compound_structure, readout_value) VALUES
  ('Cc1cc(-c2sc(NC(=O)N3CC(C(C)(C)O)C3)nc2-c2cccc(C#N)c2)cc(C)n1', 8.72),
  ('Cc1cc(-c2c(-c3cccc(C#N)c3)nn3ccc(NCC(N)=O)nc23)cc(Cl)n1', 7.94),
  ('CN1CCN(c2ccn3nc(-c4ccco4)c(C#N)c3n2)CC1', 7.20),
  ('Cc1cc(-c2c(-c3cccc(C#N)c3)nn3ccc(NS(C)(=O)=O)nc23)cc(Cl)n1', 7.86),
  ('Cc1cc(-c2c(-c3cccc(C#N)c3C)nn3ccc(C(=O)N[C@@H](C)C(C)(C)O)nc23)cc(C)n1', 8.92),
  ('Cc1cc(-c2c(-c3cccc(C#N)c3)nn3ccc(NC(=O)[C@](C)(O)C(F)(F)F)nc23)cc(C)n1', 8.70),
  ('Cc1cc(-c2sc(NC(=O)N3CC[C@H](C(N)=O)C3)nc2-c2cccc(C#N)c2)cc(C)n1', 9.06),
  ('Nc1nc(-c2cccnc2)c(-c2ccncc2)cc1Cl', 6.30);

====

pKi: −log10 of the molar value.
pKi for Adenosine receptor A2a (Homo sapiens, UniProt P29274), merged from several publications.
ASSAY METRIC: pKi

INSERT INTO results (compound, qualifier_operator, readout_value) VALUES
  ('Cc1cc(-c2c(-c3cccc(C#N)c3)nn3ccc(N[C@H](C)CO)nc23)cc(Cl)n1', '=', 9.52),
  ('Cc1cc(-c2sc(NC(=O)N3C[C@H](C)NC[C@@H]3C)nc2-c2cccc(C#N)c2)cc(C)n1', '=', 8.28),
  ('Cc1cc(-c2c(-c3cccc(C#N)c3)nn3ccc(NC(=O)N4CCNCC4)nc23)cc(Cl)n1', '=', 7.98),
  ('Cc1cc(-c2c(-c3cccc(C#N)c3)nn3ccc(N)nc23)cc2ncnn12', '=', 6.44),
  ('Cc1cc(-c2sc(NC(=O)N3CC4(COC4)C3)nc2-c2cccc(C#N)c2)cc(Cl)n1', '=', 9.80),
  ('Cc1cc(-c2c(-c3cccc(C#N)c3)nn3ccc(CN)nc23)cc(Cl)n1', '=', 7.09),
  ('Cc1cc(-c2c(-c3cccc(C#N)c3)nn3ccc(O)nc23)cc(Cl)n1', '=', 7.80),
  ('Cc1cc(-c2sc(NC(=O)N3CCNC[C@@H]3C)nc2-c2cccc(C#N)c2)cc(C)n1', '=', 8.29),
  ('Fc1cccc(-c2nn3ccc(NCc4ccccc4)nc3c2Br)c1', '=', 6.85),
  ('Cc1cc(-c2c(-c3cccc(C#N)c3)nn3ccc(N4CCN[C@H](C(C)(C)O)C4)nc23)cc(Cl)n1', '=', 8.77),
  ('NC1CCC(Nc2nc(NCC(c3ccccc3)c3ccccc3)c3ncn(C4CC(n5cccn5)C(O)C4O)c3n2)CC1 (stereo not shown)', '=', 6.57),
  ('COCCn1c(=O)n(C(C)C)c(=O)c2c(C)c(CN3CCNC3=O)sc21', '=', 6.57),
  ('Cc1cc(-c2sc(NC(=O)N3CCN4CCOCC4C3)nc2-c2cccc(C#N)c2)cc(C)n1 (stereo not shown)', '=', 8.89),
  ('CC(C)(C)OC(=O)N1CCC[C@H]1CNc1ccn2nc(-c3ccco3)c(C#N)c2n1', '=', 7.53),
  ('Cc1cc(-c2sc(NC(=O)N3C[C@H](C)N[C@@H](C)C3)nc2-c2cccc(C#N)c2)cc(C)n1', '=', 7.94),
  ('Cc1cc(-c2sc(NC(=O)N3CC(CO)C3)nc2-c2cccc(C#N)c2)cc(C)n1', '=', 9.92),
  ('Cc1cccnc1CNc1ccn2nc(-c3ccco3)c(C(N)=O)c2n1', '=', 7.98),
  ('Cc1cc(-c2c(-c3cccc(C#N)c3)nn3ccc(C(=O)NC(C)(C)CN)nc23)cc(Cl)n1', '=', 8.54),
  ('Cc1cc(-c2c(-c3cccc(C#N)c3)nn3ccc(C(=O)NCC(C)(C)O)nc23)c(F)c(C)n1', '=', 8.37),
  ('Cc1cc(-c2c(-c3cccc(C#N)c3)nn3ccc(NC45CC(O)(C4)C5)nc23)cc(Cl)n1', '=', 9.40),
  ('N#Cc1cccc(-c2nn3ccc(N4CCN(CCF)CC4)nc3c2C#N)c1', '=', 7.63),
  ('Cc1cc(-c2c(-c3cccc(C#N)c3)nn3ccc(N[C@H]4C[C@@H](O)C4)nc23)cc(Cl)n1', '=', 8.85),
  ('CCC(=O)N[C@H]1C[C@@H](n2cnc3c(NCC(c4ccccc4)c4ccccc4)nc(N4CC[C@@H](Nc5nc(Cl)nc6c5ncn6[C@@H]5C[C@H](NC(=O)CC)[C@@H](O)[C@H]5O)C4)nc32)[C@H](O)[C@@H]1O', '=', 6.12),
  ('N#Cc1c(-c2ccco2)nn2ccc(NCc3ccccc3)nc12', '=', 9.30),
  ('Cc1c(Cn2nc[nH]c2=O)sc2c1c(=O)n(C1CC1)c(=O)n2CCOC(F)(F)F', '=', 6.02),
  ('Nc1nc(-c2cncc(F)c2)c(-c2ccncc2F)cc1Cl', '<', 5.30),
  ('Cc1cc(-c2sc(NC(=O)N3CCNC4(CC4)C3)nc2-c2cccc(C#N)c2)cc(C)n1', '=', 8.72),
  ('Cc1cc(-c2c(-c3cccc(C#N)c3)nn3ccc(C(=O)N[C@@H]4COC[C@@H]4O)nc23)cc(C)n1', '=', 9.10),
  ('Cc1cc(-c2c(-c3cccc(C#N)c3)nn3ccc(NCCC(C)(C)O)nc23)cc(Cl)n1', '=', 8.85),
  ('Cc1cc(-c2c(-c3cccc(C#N)c3)nn3ccc(C(=O)NC[C@H]4CCC(=O)N4)nc23)cc(C)n1', '=', 9.00),
  ('Cc1cc(-c2sc(NC(=O)N3C[C@H]4COC[C@H]4C3)nc2-c2cccc(C#N)c2)cc(C)n1', '=', 8.90);
